Field: IC50. Provide a value for each of the molecules that follow.
- studyTarget: c-Met kinase domain recombinant protein (Homo sapiens, UniProt P08581)
- Sequence (P08581 1078-1345 limits assumed): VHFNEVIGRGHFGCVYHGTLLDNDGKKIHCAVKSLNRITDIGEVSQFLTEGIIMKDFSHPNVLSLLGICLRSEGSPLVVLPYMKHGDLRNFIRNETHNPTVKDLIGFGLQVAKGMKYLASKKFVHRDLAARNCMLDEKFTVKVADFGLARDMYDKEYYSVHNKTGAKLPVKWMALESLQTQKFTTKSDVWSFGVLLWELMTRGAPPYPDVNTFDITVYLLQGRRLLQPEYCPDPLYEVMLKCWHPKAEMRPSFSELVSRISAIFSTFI
- experimentNotes: ELISA kinase activity assay, c-Met

[[record]]
smi = "CC(C)n1cc(C(=O)Nc2ccc(Oc3ccnc(-c4cnn(C)c4)c3)c(F)c2)c(=O)n(-c2ccc(F)cc2)c1=O"
reportedmeasurement = "< 10 nM"


Provide IC50 values for the following items, in order.
1. CC(C)n1cc(C(=O)Nc2ccc(Oc3ccnc(-c4cnn(C)c4)c3)c(F)c2)c(=O)n(-c2ccccc2F)c1=O
2. Cn1cc(-c2cc(Oc3ccc(NC(=O)c4cn(CC5CC5)c(=O)n(-c5ccc(F)cc5)c4=O)cc3F)ccn2)cn1
3. CC(C)n1cc(C(=O)Nc2ccc(Oc3ccncc3-c3cnn(C)c3)cc2)c(=O)n(-c2ccc(F)cc2)c1=O
4. COCCCn1cc(C(=O)Nc2ccc(Oc3ccnc(-c4cnn(C)c4)c3)c(F)c2)c(=O)n(-c2ccc(F)cc2)c1=O
5. C#CCn1cc(C(=O)Nc2ccc(Oc3ccnc(-c4cnn(C)c4)c3)c(F)c2)c(=O)n(-c2ccc(F)cc2)c1=O
6. CC(C)n1cc(C(=O)Nc2cc(F)c(Oc3ccnc(-c4cnn(C)c4)c3)c(F)c2)c(=O)n(-c2ccc(F)cc2)c1=O

["10 to 100 nM", "< 10 nM", "10 to 100 nM", "10 to 100 nM", "10 to 100 nM", "< 10 nM"]

IC50 of CC(C)n1cc(C(=O)Nc2ccc(Oc3ccnc(-c4cnn(CC(C)(C)O)c4)c3)c(F)c2)c(=O)n(-c2ccc(F)cc2)c1=O on c-Met kinase domain recombinant protein (Homo sapiens, UniProt P08581)?
10 to 100 nM

====

- studyTarget: Axl kinase domain recombinant protein (Homo sapiens, UniProt P30530)
- Sequence (P30530 536-807 limits assumed): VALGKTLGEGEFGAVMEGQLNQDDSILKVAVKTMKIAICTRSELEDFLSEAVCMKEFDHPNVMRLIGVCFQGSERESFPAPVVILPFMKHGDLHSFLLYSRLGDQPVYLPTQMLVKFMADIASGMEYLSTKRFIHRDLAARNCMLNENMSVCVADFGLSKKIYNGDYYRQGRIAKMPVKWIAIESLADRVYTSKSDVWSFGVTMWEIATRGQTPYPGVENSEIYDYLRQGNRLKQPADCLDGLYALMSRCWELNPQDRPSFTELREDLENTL
- experimentNotes: ELISA kinase activity assay, Axl
pIC50: −log10 of the molar value.
Field: pIC50. Provide a value for each of the compounds that follow.

# annotated cases, reported pIC50 shown
[[record]]
smi = "CC(C)n1cc(C(=O)Nc2ccc(Oc3ccnc(-c4cnn(C)c4)c3)c(F)c2)c(=O)n(-c2ccc(Cl)cc2)c1=O"
reportedmeasurement = "> 8.00"

[[record]]
smi = "Cn1cc(-c2cc(Oc3ccc(NC(=O)c4cn(CCO)c(=O)n(-c5ccc(F)cc5)c4=O)cc3F)ccn2)cn1"
reportedmeasurement = "< 7.00"

[[record]]
smi = "CC(C)n1cc(C(=O)Nc2ccc(Oc3ccnc4c3OCCN4)cc2)c(=O)n(-c2ccc(F)cc2)c1=O"
reportedmeasurement = "> 8.00"

[[record]]
smi = "COCCCn1cc(C(=O)Nc2ccc(Oc3ccnc(-c4cnn(C)c4)c3)c(F)c2)c(=O)n(-c2ccc(F)cc2)c1=O"
reportedmeasurement = "7.00 to 8.00"

[[record]]
smi = "COc1cc(NC(=O)c2cn(C(C)C)c(=O)n(-c3ccc(F)cc3)c2=O)ccc1Oc1ccnc(-c2cnn(C)c2)c1"
reportedmeasurement = "< 7.00"

[[record]]
smi = "COc1ccc(-c2cnc(N)c(-c3ccc(NC(=O)c4cn(C(C)C)c(=O)n(-c5ccc(F)cc5)c4=O)cc3F)c2)cc1OC"
reportedmeasurement = "> 8.00"


Below: the item to evaluate.
What does the record list as pIC50 for CC(C)n1cc(C(=O)Nc2ccc(-c3cc(-c4cnn(C)c4)cnc3N)c(F)c2)c(=O)n(-c2ccc(F)cc2)c1=O ?
> 8.00

====

- studyTarget: c-Met kinase domain recombinant protein (Homo sapiens)
- experimentNotes: ELISA kinase activity assay, c-Met
measurementType: IC50

# annotated cases, reported IC50 shown
[[record]]
compound = "COc1ccc(-c2cnc(N)c(-c3ccc(NC(=O)c4cn(C(C)C)c(=O)n(-c5ccc(F)cc5)c4=O)cc3F)c2)cc1OC [No. 37]"
reportedmeasurement = "10 to 100 nM"

[[record]]
compound = "CC(C)n1cc(C(=O)Nc2ccc(Oc3ccnc(-c4cnn(C)c4)c3)c(F)c2)c(=O)n(-c2ccncc2)c1=O [No. 20]"
reportedmeasurement = "> 100 nM"

[[record]]
compound = "CC(C)n1nc(C(=O)Nc2ccc(Oc3ccnc(-c4cnn(C)c4)c3)cc2)c(=O)n(-c2ccc(F)cc2)c1=O [No. 23]"
reportedmeasurement = "10 to 100 nM"

[[record]]
compound = "CC(C)n1cc(C(=O)Nc2ccc(Oc3ncnc4[nH]cc(-c5ccccc5)c34)c(F)c2)c(=O)n(-c2ccc(F)cc2)c1=O [No. 44]"
reportedmeasurement = "10 to 100 nM"

[[record]]
compound = "COCCn1cc(C(=O)Nc2ccc(Oc3ccnc(-c4cnn(C)c4)c3)c(F)c2)c(=O)n(-c2ccc(F)cc2)c1=O [No. 10]"
reportedmeasurement = "< 10 nM"


Provide IC50 values for the following items, in order.
1. CC(C)n1cc(C(=O)Nc2ccc(Oc3ccnc(-c4cnn(C)c4)c3)c(F)c2)c(=O)n(-c2cccc(F)c2)c1=O [No. 17]
2. Cn1cc(-c2cc(Oc3ccc(NC(=O)c4cn(CCO)c(=O)n(-c5ccc(F)cc5)c4=O)cc3F)ccn2)cn1 [No. 9]

< 10 nM
10 to 100 nM

====

- studyTarget: c-Met kinase domain recombinant protein (Homo sapiens, UniProt P08581)
- experimentNotes: ELISA kinase activity assay, c-Met
pIC50: −log10 of the molar value.
Field: pIC50. Provide a value for each of the compounds that follow.

# annotated cases, reported pIC50 shown
[[record]]
compound = "CCCn1cc(C(=O)Nc2ccc(Oc3ccnc(-c4cnn(C)c4)c3)c(F)c2)c(=O)n(-c2ccc(F)cc2)c1=O [No. 4]"
studytarget = "c-Met kinase domain recombinant protein (Homo sapiens, UniProt P08581)"
reportedmeasurement = "> 8.00"

[[record]]
compound = "CC(C)n1cc(C(=O)Nc2cc(F)c(Oc3ccnc(-c4cnn(C)c4)c3)cc2F)c(=O)n(-c2ccc(F)cc2)c1=O [No. 29]"
studytarget = "c-Met kinase domain recombinant protein (Homo sapiens, UniProt P08581)"
reportedmeasurement = "> 8.00"

[[record]]
compound = "COc1cc(-c2cnc(N)c(-c3ccc(NC(=O)c4cn(C(C)C)c(=O)n(-c5ccc(F)cc5)c4=O)cc3F)c2)ccc1OC[C@H]1COCCO1 [No. 39]"
studytarget = "c-Met kinase domain recombinant protein (Homo sapiens, UniProt P08581)"
reportedmeasurement = "7.00 to 8.00"

[[record]]
compound = "CC(C)n1cc(C(=O)Nc2ccc(Oc3ccnc(-c4cnn(C)c4)c3)cc2F)c(=O)n(-c2ccc(F)cc2)c1=O [No. 26]"
studytarget = "c-Met kinase domain recombinant protein (Homo sapiens, UniProt P08581)"
reportedmeasurement = "> 8.00"

[[record]]
compound = "CC(C)n1cc(C(=O)Nc2ccc(Oc3ccnc4[nH]cc(Br)c34)c(F)c2)c(=O)n(-c2ccc(F)cc2)c1=O [No. 42]"
studytarget = "c-Met kinase domain recombinant protein (Homo sapiens, UniProt P08581)"
reportedmeasurement = "> 8.00"

[[record]]
compound = "CC(C)n1cc(C(=O)Nc2ccc(Oc3ccnc(-c4cnn(C)c4)c3)c(F)c2F)c(=O)n(-c2ccc(F)cc2)c1=O [No. 27]"
studytarget = "c-Met kinase domain recombinant protein (Homo sapiens, UniProt P08581)"
reportedmeasurement = "7.00 to 8.00"

[[record]]
compound = "CC(C)n1cc(C(=O)Nc2ccc(Oc3ccnc4c3CC(=O)N4)c(F)c2)c(=O)n(-c2ccc(F)cc2)c1=O [No. 45]"
studytarget = "c-Met kinase domain recombinant protein (Homo sapiens, UniProt P08581)"
reportedmeasurement = "< 7.00"

[[record]]
compound = "CC(C)n1cc(C(=O)Nc2ccc(Oc3ccnc4c3OCCN4)cc2)c(=O)n(-c2ccc(F)cc2)c1=O [No. 48]"
studytarget = "c-Met kinase domain recombinant protein (Homo sapiens, UniProt P08581)"
reportedmeasurement = "7.00 to 8.00"

[[record]]
compound = "Cn1cc(-c2cc(Oc3ccc(NC(=O)c4cn(C5CCCC5)c(=O)n(-c5ccc(F)cc5)c4=O)cc3F)ccn2)cn1 [No. 11]"
studytarget = "c-Met kinase domain recombinant protein (Homo sapiens, UniProt P08581)"
reportedmeasurement = "> 8.00"

[[record]]
compound = "Cn1cc(-c2cnccc2Oc2ccc(NC(=O)c3cn(CC4CCOCC4)c(=O)n(-c4ccc(F)cc4)c3=O)cc2)cn1 [No. 54]"
studytarget = "c-Met kinase domain recombinant protein (Homo sapiens, UniProt P08581)"
reportedmeasurement = "7.00 to 8.00"


Provide pIC50 values for the following items, in order.
1. COc1ccc(-n2c(=O)c(C(=O)Nc3ccc(Oc4ccnc(-c5cnn(C)c5)c4)c(F)c3)cn(C(C)C)c2=O)cc1 [No. 16]
2. Cn1cc(-c2cnccc2Oc2ccc(NC(=O)c3cn(C)c(=O)n(-c4ccc(F)cc4)c3=O)cc2)cn1 [No. 53]
3. CC(C)n1cc(C(=O)Nc2ccc(Oc3ccnc(-c4cnn(C)c4)c3)c(F)c2)c(=O)n(-c2cnn(C)c2)c1=O [No. 21]
4. C=CCn1cc(C(=O)Nc2ccc(Oc3ccnc(-c4cnn(C)c4)c3)c(F)c2)c(=O)n(-c2ccc(F)cc2)c1=O [No. 7]

1. < 7.00
2. < 7.00
3. < 7.00
4. > 8.00
